- Test system: kochia
- Test: Test A preemergence
- Assay type: in vivo, Kochia scoparia
- Stated Conditions: 31 g ai/ha, 0 to 100 scale where 0 is no effect and 100 is complete control, visual, approximately 10 days
Property Name: Plant response rating, Kochia

{"columns": ["Structure", "Tested System", "Measurement"],
 "data": [
  ["NC(=O)c1cccc(Oc2ncc(Cl)cn2)c1-n1cc(C(F)(F)F)cn1", "kochia", 0],
  ["FCc1cccc(Oc2ncc(Cl)cn2)c1-n1cc(Cl)cn1", "kochia", 90],
  ["CC(C)Oc1cnn(-c2c(C#N)cccc2Oc2ncc(Br)cn2)c1", "kochia", 20],
  ["Cc1cc(C(F)F)nn1-c1ccccc1Oc1ncc(Cl)cn1", "kochia", 0]
]}
